details: human, hNSCs
Assay endpoint: CC50

Just so you know, measured CC50 for CN(Cc1cnc2nc(N)nc(N)c2n1)c1ccc(C(=O)N[C@@H](CCC(=O)O)C(=O)O)cc1 [MTX, methotrexate] came out at > 100 µM

###

conditions: human
Assay endpoint: CC50 (µM)
Give the number; µM is assumed, so skip it.

Sample CN(Cc1cnc2nc(N)nc(N)c2n1)c1ccc(C(=O)N[C@@H](CCC(=O)O)C(=O)O)cc1 [MTX, methotrexate] ; CC50 observed: 0.0163

These entries and their values trace back to paper PMC6521145.
